Where do these numbers come from? They come from patent US9562060B2.

Biological target: c-Met kinase (Homo sapiens, UniProt P08581)
Construct: purchased Invitrogen PV3143
Sequence (P08581 25-1390): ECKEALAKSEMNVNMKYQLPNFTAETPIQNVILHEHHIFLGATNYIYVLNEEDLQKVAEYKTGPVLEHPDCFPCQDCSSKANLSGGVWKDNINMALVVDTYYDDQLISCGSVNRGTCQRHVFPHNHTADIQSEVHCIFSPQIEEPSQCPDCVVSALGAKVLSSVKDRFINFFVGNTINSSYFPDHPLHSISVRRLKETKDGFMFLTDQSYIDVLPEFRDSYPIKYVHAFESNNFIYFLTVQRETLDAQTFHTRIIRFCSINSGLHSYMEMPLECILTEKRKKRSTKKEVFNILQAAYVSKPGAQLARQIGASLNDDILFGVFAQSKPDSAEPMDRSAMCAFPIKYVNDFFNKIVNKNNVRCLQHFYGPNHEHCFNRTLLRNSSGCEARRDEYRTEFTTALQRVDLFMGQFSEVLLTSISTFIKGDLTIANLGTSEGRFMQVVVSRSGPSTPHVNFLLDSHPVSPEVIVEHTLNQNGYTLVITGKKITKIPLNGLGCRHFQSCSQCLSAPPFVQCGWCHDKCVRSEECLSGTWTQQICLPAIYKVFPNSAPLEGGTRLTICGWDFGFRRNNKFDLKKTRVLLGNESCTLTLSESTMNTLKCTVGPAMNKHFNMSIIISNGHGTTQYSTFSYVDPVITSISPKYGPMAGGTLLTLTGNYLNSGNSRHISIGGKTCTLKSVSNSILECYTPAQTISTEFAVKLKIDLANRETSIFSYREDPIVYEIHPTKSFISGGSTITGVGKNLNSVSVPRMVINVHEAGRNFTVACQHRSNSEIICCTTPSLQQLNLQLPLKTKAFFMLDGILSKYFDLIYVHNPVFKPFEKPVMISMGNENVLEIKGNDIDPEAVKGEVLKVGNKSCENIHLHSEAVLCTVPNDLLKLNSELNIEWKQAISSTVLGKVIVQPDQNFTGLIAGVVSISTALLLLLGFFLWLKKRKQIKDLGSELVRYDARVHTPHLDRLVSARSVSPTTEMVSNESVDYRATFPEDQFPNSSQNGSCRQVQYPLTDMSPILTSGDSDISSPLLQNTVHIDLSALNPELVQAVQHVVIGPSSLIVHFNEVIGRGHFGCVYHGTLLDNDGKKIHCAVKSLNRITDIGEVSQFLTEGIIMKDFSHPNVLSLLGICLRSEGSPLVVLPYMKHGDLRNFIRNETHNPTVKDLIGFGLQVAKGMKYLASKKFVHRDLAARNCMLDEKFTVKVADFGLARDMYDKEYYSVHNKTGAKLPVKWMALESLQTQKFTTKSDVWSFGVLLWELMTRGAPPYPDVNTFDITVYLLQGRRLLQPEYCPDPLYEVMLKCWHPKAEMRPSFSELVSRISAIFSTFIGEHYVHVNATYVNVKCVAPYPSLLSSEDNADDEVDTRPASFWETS
Test: Inhibitory activity of compound to c-Met kinases (Z'-LYTE kinase assay kit)
Type: biochemical
Conditions: Tyr 6 substrate peptide, read-out: Strength of activity (inhibition on c-Met kinase, IC50)
Here the recorded IC50 is given for each entry.

Some solved entries appear below for comparison.
CN1CCOc2cc(C(=O)Nc3ccc(Oc4ccnc(N)c4Cl)c(F)c3)c(=O)n(-c3ccc(F)cc3)c21	100 to 1000 nM
CN1CCOc2cc(C(=O)Nc3ccc(Oc4ccnc(N)c4)c(F)c3)c(=O)n(-c3ccc(F)cc3)c21	10 to 100 nM
CN(C)c1c(C(=O)Nc2ccc(Oc3ccnc4[nH]ccc34)c(F)c2)c(=O)n(-c2ccc(F)cc2)c2scnc12	10 to 100 nM
CN1CCN(C(=O)Nc2cc(Oc3ccc(NC(=O)c4cc5ncsc5n(-c5ccc(F)cc5)c4=O)cc3F)ccn2)CC1	100 to 1000 nM
COc1ccc2c(Oc3ccc(NC(=O)c4cc5nc(N(C)C)sc5n(-c5ccc(F)cc5)c4=O)cc3F)ccnc2c1	100 to 1000 nM
O=C(Nc1ccc(Oc2ccnc(NC(=O)N3CCOCC3)c2)c(F)c1)c1cc2ncsc2n(-c2ccc(F)cc2)c1=O	10 to 100 nM
Cc1n[nH]c2nccc(Oc3ccc(NC(=O)c4cc5ncsc5n(-c5ccc(F)cc5)c4=O)cc3F)c12	10 to 100 nM

query: IC50 for "Nc1cc(Oc2ccc(NC(=O)c3cc4ncsc4n(-c4ccc(F)cc4)c3=O)cc2F)ccn1" ?
result: 10 to 100 nM

* * *

System: Human gastric cancer cell SNU-5
Test: Inhibition of in vitro proliferation of human gastric cancer cell SNU-5 (SRB)
Type: cell-based
Conditions: Homo sapiens, SNU-5 cells, 72-hr agent treatment, read-out: Strength of activity (inhibition on SNU-5, IC50)
PARAMETER_MEASURED: IC50

CN(C)c1nc2cc(C(=O)Nc3ccc(Oc4ccnc(N)c4Cl)c(F)c3)c(=O)n(-c3ccc(F)cc3)c2s1	100 to 500 nM
COc1cc2c(Oc3ccc(NC(=O)c4cc5ncn(C)c5n(-c5ccc(F)cc5)c4=O)cc3F)ccnc2cc1OCCCN1CCOCC1	100 to 500 nM
CN1CCN(C(=O)Nc2cc(Oc3ccc(NC(=O)c4cc5ncsc5n(-c5ccc(F)cc5)c4=O)cc3F)ccn2)CC1	< 100 nM

// below: IC50 requested for another compound
query: IC50 for "Nc1cc(Oc2ccc(NC(=O)c3cc4ncsc4n(-c4ccccc4CCO)c3=O)cc2F)ccn1" ?
result: 500 to 5000 nM
